- System: Q30R in genotype 1a NS5A (1a Pi-Rluc replicon, Huh-7-derived cured-51 cells)
- Assay Summary: Replicon assay against resistance mutant 1a Q30R
- Type: cell-based, HCV
- Run Conditions: Hepatitis C virus, read-out: 1a Q30R (nM)
- Description: Antiviral potency (EC50) was determined using a Renilla luciferase (RLuc)-based HCV replicon reporter assay. […] 72 hours later, cells were lysed and Renilla luciferase activity quantified as recommended by the manufacturer (Promega-Madison, Wis.). […]
Measurement Type: EC50 (nM)

| Compound | Assayed Target | Numeric Value |
| --- | --- | --- |
| CC[C@H]1C[C@@H](c2nc3ccc4cc5c(cc4c3[nH]2)OCc2cc(-c3cnc([C@@H]4CC[C@H](C)N4C(=O)[C@@H](NC(=O)OC)C(C)C)[nH]3)ccc2-5)N(C(=O)[C@@H](NC(=O)OC)C2CCOCC2)C1 [GV] | Q30R in genotype 1a NS5A (1a Pi-Rluc replicon, Huh-7-derived cured-51 cells) | 0.061 |
| COC(=O)N[C@H](C(=O)N1[C@@H](C)CC[C@H]1c1ncc(-c2ccc3c(c2)COc2cc4c(ccc5nc([C@@H]6C[C@@H]7CCC[C@@H]7N6C(=O)[C@@H](NC(=O)OC)C6CCOCC6)[nH]c54)cc2-3)[nH]1)C(C)C [IA] | Q30R in genotype 1a NS5A (1a Pi-Rluc replicon, Huh-7-derived cured-51 cells) | 0.024 |
| CC[C@H](C)[C@H](NC(=O)OC)C(=O)N1[C@@H](C)CC[C@H]1c1ncc(-c2ccc3c(c2)COc2cc4c(ccc5nc([C@@H]6CC[C@H](C)N6C(=O)[C@@H](NC(=O)OC)C6CCOCC6)[nH]c54)cc2-3)[nH]1 [GG] | Q30R in genotype 1a NS5A (1a Pi-Rluc replicon, Huh-7-derived cured-51 cells) | 0.032 |
| COC(=O)N[C@H](C(=O)N1[C@@H](C)CC[C@H]1c1ncc(-c2ccc3c(c2)COc2cc4c(ccc5nc([C@@H]6C[C@H](COC(F)F)CN6C(=O)[C@@H](NC(=O)OC)[C@@H](C)OC)[nH]c54)cc2-3)[nH]1)C(C)C [FO] | Q30R in genotype 1a NS5A (1a Pi-Rluc replicon, Huh-7-derived cured-51 cells) | 0.112 |
| COC(=O)N[C@H](C(=O)N1[C@@H](C)CC[C@H]1c1ncc(-c2ccc3c(c2)COc2cc4c(ccc5nc([C@@H]6CC[C@H](C)N6C(=O)[C@H](NC(=O)OC)c6ccccc6)[nH]c54)cc2-3)[nH]1)C(C)C [FB] | Q30R in genotype 1a NS5A (1a Pi-Rluc replicon, Huh-7-derived cured-51 cells) | 0.077 |
| COC(=O)N[C@H](C(=O)N1[C@@H](C)CC[C@H]1c1ncc(-c2ccc3c(c2)COc2cc4c(ccc5nc([C@@H]6CC[C@H](C)N6C(=O)[C@@H](NC(=O)OC)[C@@H](C)OC)[nH]c54)cc2-3)[nH]1)C1CCOCC1 [FR] | Q30R in genotype 1a NS5A (1a Pi-Rluc replicon, Huh-7-derived cured-51 cells) | 0.071 |
| COC(=O)NC(C(=O)N1[C@@H](C)CC[C@H]1c1nc2ccc3cc4c(cc3c2[nH]1)OCc1cc(-c2cnc([C@@H]3CC[C@H](C)N3C(=O)[C@@H](NC(=O)OC)C3CCOCC3)[nH]2)ccc1-4)C1CCOCC1 (some centres unmarked) [EB] | Q30R in genotype 1a NS5A (1a Pi-Rluc replicon, Huh-7-derived cured-51 cells) | 0.042 |
| CC[C@H]1CC[C@@H](c2nc3ccc4cc5c(cc4c3[nH]2)OCc2cc(-c3cnc([C@@H]4CC[C@H](C)N4C(=O)[C@@H](NC(=O)OC)C(C)C)[nH]3)ccc2-5)N1C(=O)[C@@H](NC(=O)OC)C1CCOCC1 [EO] | Q30R in genotype 1a NS5A (1a Pi-Rluc replicon, Huh-7-derived cured-51 cells) | 0.052 |
| COC(=O)N[C@H](C(=O)N1[C@@H](C)CC[C@H]1c1ncc(-c2ccc3c(c2)COc2cc4c(ccc5nc([C@@H]6CC[C@H](C)N6C(=O)[C@@H](NC(=O)OC)[C@@H](C)OC)[nH]c54)cc2-3)[nH]1)C(C)C [FA] | Q30R in genotype 1a NS5A (1a Pi-Rluc replicon, Huh-7-derived cured-51 cells) | 0.046 |
| COC[C@H](NC(=O)OC)C(=O)N1[C@@H](C)CC[C@H]1c1nc2ccc3cc4c(cc3c2[nH]1)OCc1cc(-c2cnc([C@@H]3CC[C@H](C)N3C(=O)[C@@H](NC(=O)OC)C(C)C)[nH]2)ccc1-4 [FE] | Q30R in genotype 1a NS5A (1a Pi-Rluc replicon, Huh-7-derived cured-51 cells) | 0.253 |
| COC(=O)N[C@H](C(=O)N1[C@@H](C)CC[C@H]1c1nc(C)c(-c2ccc3c(c2)COc2cc4c(ccc5nc([C@@H]6CC[C@H](C)N6C(=O)[C@@H](NC(=O)OC)[C@@H](C)OC)[nH]c54)cc2-3)[nH]1)[C@@H](C)OC [GD] | Q30R in genotype 1a NS5A (1a Pi-Rluc replicon, Huh-7-derived cured-51 cells) | 0.105 |
| COC(=O)N[C@H](C(=O)N1[C@@H](C)CC[C@H]1c1ncc(-c2ccc3c(c2)COc2cc4c(ccc5nc([C@@H]6CC[C@H](C)N6C(=O)[C@@H](NC(=O)OC)C6CCOCC6)[nH]c54)cc2-3)[nH]1)C(C)C [FC] | Q30R in genotype 1a NS5A (1a Pi-Rluc replicon, Huh-7-derived cured-51 cells) | 0.031 |
| CC[C@H]1CC[C@@H](c2ncc(-c3ccc4c(c3)COc3cc5c(ccc6nc([C@@H]7CC[C@H](C)N7C(=O)[C@@H](NC(=O)OC)[C@@H](C)OC)[nH]c65)cc3-4)[nH]2)N1C(=O)[C@@H](NC(=O)OC)C1CCOCC1 [HY] | Q30R in genotype 1a NS5A (1a Pi-Rluc replicon, Huh-7-derived cured-51 cells) | 0.046 |
| COC[C@H]1C[C@@H](c2nc(Cl)c(-c3ccc4c(c3)COc3cc5c(ccc6nc([C@@H]7CC[C@H](C)N7C(=O)[C@@H](NC(=O)OC)C(C)C)[nH]c65)cc3-4)[nH]2)N(C(=O)[C@H](NC(=O)OC)c2ccccc2)C1 [FY] | Q30R in genotype 1a NS5A (1a Pi-Rluc replicon, Huh-7-derived cured-51 cells) | 0.017 |
| COC(=O)N[C@H](C(=O)N1[C@@H](C)CC[C@H]1c1ncc(-c2ccc3c(c2)COc2cc4c(ccc5nc([C@@H]6CC[C@H](C)N6C(=O)[C@@H](NC(=O)OC)[C@H](C)OC)[nH]c54)cc2-3)[nH]1)C(C)C [FK] | Q30R in genotype 1a NS5A (1a Pi-Rluc replicon, Huh-7-derived cured-51 cells) | 0.498 |
| CC[C@H](C)C(NC(=O)OC)C(=O)N1[C@@H](C)CC[C@H]1c1nc2ccc3cc4c(cc3c2[nH]1)OCc1cc(-c2cnc([C@@H]3CC[C@H](C)N3C(=O)[C@@H](NC(=O)OC)[C@@H](C)OC)[nH]2)ccc1-4 (some centres unmarked) [EH] | Q30R in genotype 1a NS5A (1a Pi-Rluc replicon, Huh-7-derived cured-51 cells) | 0.082 |
| COC(=O)N[C@H](C(=O)N1[C@@H](C)CC[C@H]1c1ncc(-c2ccc3c(c2)COc2cc4c(ccc5nc([C@@H]6CC[C@H](C)N6C(=O)[C@@H](NC(=O)OC)[C@@H](C)O)[nH]c54)cc2-3)[nH]1)C(C)C [FI] | Q30R in genotype 1a NS5A (1a Pi-Rluc replicon, Huh-7-derived cured-51 cells) | 0.115 |

----------
- Test system: NS5A chimeric genotype 1b Con1 replicon with genotype 3a S52 strain NS5A gene
- Assay Summary: Replicon assay, genotype 3a NS5A chimera
- Type: cell-based, HCV
- Run Conditions: Hepatitis C virus, read-out: 3a (s) (nM), genotype 3a NS5A chimeric replicon, stable replicon cells (s)
Flag rule - EC50 less than 0.09 nM flags met; the remaining entries get not met.

| Compound | Qualitative Label |
| --- | --- |
| COC(=O)N[C@H](C(=O)N1C[C@@H](C)C[C@H]1c1nc2ccc3cc4c(cc3c2[nH]1)OCc1cc(-c2cnc([C@@H]3CC[C@H](C)N3C(=O)[C@@H](NC(=O)OC)C(C)(C)C)[nH]2)ccc1-4)C(C)C | not met |
| COC[C@H]1C[C@@H](c2ncc(-c3ccc4c(c3)c(=O)oc3cc5c(ccc6nc([C@@H]7CC[C@H](C)N7C(=O)[C@@H](NC(=O)OC)C(C)C)[nH]c65)cc34)[nH]2)N(C(=O)[C@H](NC(=O)OC)c2ccccc2)C1 | not met |
| COC(=O)N[C@H](C(=O)N1C[C@@H](C)C[C@H]1c1ncc(-c2ccc3c(c2)COc2cc4c(ccc5nc([C@@H]6C[C@H](C)CN6C(=O)[C@@H](NC(=O)OC)[C@@H](C)OC)[nH]c54)cc2-3)[nH]1)[C@@H](C)OC | not met |
| COC(=O)N[C@H](C(=O)N1C[C@@H](C)C[C@H]1c1nc2ccc3cc4c(cc3c2[nH]1)OCc1cc(-c2cnc([C@@H]3CC[C@H](C)N3C(=O)[C@@H](NC(=O)OC)C3CCOCC3)[nH]2)ccc1-4)C(C)C | met |
| CC[C@H](C)[C@H](NC(=O)OC)C(=O)N1C[C@@H](COC)C[C@H]1c1ncc(-c2ccc3c(c2)COc2cc4c(ccc5nc([C@@H]6CC[C@H](C)N6C(=O)[C@@H](NC(=O)OC)[C@@H](C)OC)[nH]c54)cc2-3)[nH]1 | not met |
| COC(=O)NC(C(=O)N1[C@@H](C)CC[C@H]1c1nc2ccc3cc4c(cc3c2[nH]1)OCc1cc(-c2cnc([C@@H]3CC[C@H](C)N3C(=O)[C@@H](NC(=O)OC)[C@@H](C)OC)[nH]2)ccc1-4)C1CCOCC1 (stereo partly drawn) | met |
| CC[C@H]1CC[C@@H](c2nc3ccc4cc5c(cc4c3[nH]2)OCc2cc(-c3cnc([C@@H]4C[C@H](C)CN4C(=O)[C@@H](NC(=O)OC)C(C)C)[nH]3)ccc2-5)N1C(=O)[C@@H](NC(=O)OC)C1CCOCC1 | not met |
